system: UACC-62 melanoma; assay: NCI tumour cell line growth inhibition, 48 h
Threshold check on TGI: at or above 20 µM gives rule met, strictly below gives rule not met.

compound	target.under.test	assigned.category
CN(C)CCNC(=O)c1ccc(Nc2nc3ccccc3c3occc23)cc1	UACC-62 melanoma	rule not met
O=C(Nc1ccc(Cl)c([N+](=O)[O-])c1)Nc1nc2ccccc2s1	UACC-62 melanoma	rule not met
O=C1C2C(C(=O)N1O)N(Cc1ccccc1)C(=O)N2Cc1ccccc1 (stereo unspecified)	UACC-62 melanoma	rule met
Oc1ccc(C(c2ccccc2)(c2ccccc2)c2ccccc2)cc1	UACC-62 melanoma	rule met
CC(C)C[C@H](NC(=O)[C@H](Cc1ccccc1)n1ccc(N2CCCCC2)cc1=O)B(O)O	UACC-62 melanoma	rule not met
CC/C(=N\NC(=O)c1cccnc1)c1ccc2c(c1)OCCO2	UACC-62 melanoma	rule met
CCCCCCCCC[C@@H]1C[C@@H]2CCC3C(C(=O)OC)=C(C)NC(=N1)N32 (stereo partly specified)	UACC-62 melanoma	rule not met
CC1=CC=NN2C(=O)[C@H](C)C2C1 (stereo partly specified)	UACC-62 melanoma	rule met
COc1cc(NS(C)(=O)=O)ccc1NCc1cnc2ccc3[nH]c(C)ccc3c12	UACC-62 melanoma	rule met
CC1=C(C)C(=O)c2c(c(C(=O)c3ccccc3)c3nc4ccccc4n3c2C)C1=O	UACC-62 melanoma	rule met
O=C(Cc1nc2ccccc2s1)C(=O)Nc1ccc(Cl)cc1	UACC-62 melanoma	rule met
O=C1c2ccccc2-c2c1c1ccccc1c(=O)n2CCCNCCCn1c2c(c3ccccc3c1=O)C(=O)c1ccccc1-2	UACC-62 melanoma	rule not met
O=C(O)CC(C(=O)O)c1ccccc1[N+](=O)[O-] (stereo unspecified)	UACC-62 melanoma	rule met
S=CN1CCCCC1	UACC-62 melanoma	rule met
Cn1ccnc1C(=O)/C=C/c1ccc(CC(=O)Nc2ccc(Cl)cc2)cc1	UACC-62 melanoma	rule met
Nc1c(C(=O)Nc2ccccc2)sc2nc3c(cc12)CCCCCC3	UACC-62 melanoma	rule not met
CC(C(=O)N1C(=O)N(C(=O)C(C)C(O)c2ccccc2)C(c2ccccc2)C1c1ccccc1)C(O)c1ccccc1 (stereo unspecified)	UACC-62 melanoma	rule met
COc1ccc(CN2C(=O)/C(=C\c3cc(OC)c(OC)c(OC)c3)c3cc(OC)ccc32)cc1	UACC-62 melanoma	rule not met
O=C1NC(=O)C(C(=O)C(=O)Nc2ccc(Br)cc2)C(=O)N1	UACC-62 melanoma	rule met
CSC(=S)c1ccc(C(=S)SC)cc1	UACC-62 melanoma	rule met

* * *

# reported TGI; entries follow
tested on: HOP-92 NSCLC; assay: NCI tumour cell line growth inhibition, 48 h

compound	TGI
Cc1c(N2C(=O)/C(=C/C=C/c3ccccc3)N=C2c2ccccc2)c(=O)n(-c2ccccc2)n1C	51.3 µM
CC(=O)N(C)OC(=O)CC(=O)c1ccccc1	> 100 µM
Cn1ccnc1C(=O)/C=C/c1ccc(CC(=O)Nc2ccc(Cl)cc2)cc1	> 25 µM
Cc1cc2nc3n[nH]c(N)c3nc2cc1C	> 100 µM
CCCCCCCCC[C@@H]1C[C@@H]2CCC3C(C(=O)OC)=C(C)NC(=N1)N32 (stereo partly specified)	27.3 µM
C/C(=N\N=C(N)N)C(CN(CC(C)C)CC(C)C)C(=O)Nc1ccc(C)cc1C (stereo unspecified)	> 100 µM

* * *

tested on: NCI-H23 lung; assay: NCI tumour cell line growth inhibition, 48 h
Here, each record is paired with measured TGI data.
experimental.readout: TGI

molecule	target.under.test	observed
O=C1/C(=C/c2cccc([N+](=O)[O-])c2)COc2ccc(O)c(O)c21	NCI-H23 lung	3.95 µM
CCCC1NC(=O)C(CC(C)C)NC(=O)c2cccc(n2)C(=O)NC(CC(C)C)C(=O)NC(CCC)C(=O)NC(C(=O)OC)CCCCNC1=O (stereo unspecified)	NCI-H23 lung	> 100 µM
O=c1c2ccccc2nc2n1NC(c1c(Cl)cccc1Cl)N2c1cccc(Cl)c1 (stereo unspecified)	NCI-H23 lung	56.7 µM
CCOC(=O)/C(C#N)=C/c1ccc2c(-c3c(OCC)ccc4cc(/C=C(\C#N)C(=O)OCC)ccc34)c(OCC)ccc2c1	NCI-H23 lung	> 100 µM
CC(=O)ON(OC(C)=O)c1ccc(C)cc1	NCI-H23 lung	> 100 µM
COc1c(CC=C(C)C)c(O)c(C(CC(C)C)c2c(O)c(C(C)=O)c(O)c3c2OC(C(C)(C)O)C3)c(O)c1C(C)=O (stereo unspecified)	NCI-H23 lung	> 12.5 µM
COc1ccc(C(=O)Cn2c(C(=O)c3ccc(Cl)cc3)nc3ccccc32)cc1	NCI-H23 lung	> 100 µM
O=C(O)c1ccc(NC(=O)C2C(=O)C(=O)N(c3ccc(C(=O)O)cc3)C2=O)cc1 (stereo unspecified)	NCI-H23 lung	> 100 µM
CC[C@@H]1C[C@@H]2CN3CCc4c([nH]c5ccc(OC)cc45)C(COC(=O)c4ccc(OC)c(OC)c4)(C2)C13	NCI-H23 lung	38.8 µM
CSC(SC)=C1CC(=O)Nc2ccccc2C1=O	NCI-H23 lung	> 100 µM
S=c1[nH]nc(COc2ccc3c(c2)CCCC3)n1/N=C/c1ccc(Cl)cc1	NCI-H23 lung	35.9 µM
C=CC1(C)CCC(C(C)C(=O)C(C=C(C)C)OC(C)=O)C12C(=O)Oc1ccccc1C2=O (stereo unspecified)	NCI-H23 lung	> 100 µM
COc1cccc(N2C(=O)c3c(c4[nH]c5ccccc5c4c4ccc(C(C)(C)C)cc34)C2=O)c1	NCI-H23 lung	> 100 µM
Cn1c(C(N)=O)cc2c1-c1nc(Nc3ccccc3)ncc1CCC2	NCI-H23 lung	32.9 µM
CC(=O)N(C)OC(=O)CC(=O)c1ccccc1	NCI-H23 lung	> 100 µM
CCC1(C)C=Cc2c(cc(OC)c3c(=O)c4ccccc4n(C)c23)O1 (stereo unspecified)	NCI-H23 lung	> 10 µM
CCN(CC)C(=S)SS(=O)(=O)c1ccccc1C(=O)O	NCI-H23 lung	> 100 µM
NCc1ccc(-c2ccc(-c3ccc(-c4ccc(CN)s4)s3)s2)s1	NCI-H23 lung	> 100 µM
c1ccc(N=C2c3ccccc3CN2c2ccccc2)cc1	NCI-H23 lung	> 100 µM
Cc1ccc(C)c(NC(=O)C(=O)C(c2cnc3ccc([N+](=O)[O-])cc3n2)[N+](=O)[O-])c1 (stereo unspecified)	NCI-H23 lung	> 100 µM
O=S(=O)([O-])[O-].[OH3+].[OH3+].[OH3+].[Ru+2].c1ccccc1	NCI-H23 lung	> 100 µM
CC(=O)/C(C=Nc1c(C)n(C)n(-c2ccccc2)c1=O)=C(/C)O	NCI-H23 lung	> 100 µM
Cc1ccccc1NC(=O)NC(Oc1ccccc1)(C(F)(F)F)C(F)(F)F	NCI-H23 lung	> 100 µM
CN(C)CCCCN1CCc2c(n(C)c3ccccc23)C1=O	NCI-H23 lung	> 100 µM
COc1cc(/C=C(/C)[N+](=O)[O-])ccc1O	NCI-H23 lung	5.23 µM
CCOP(=O)(OCC)C(NC(=O)OCC(Cl)(Cl)Cl)n1nnc(C(=O)OC)c1C(=O)OC (stereo unspecified)	NCI-H23 lung	> 100 µM
COc1cccc(-c2nn(-c3ccccc3)cc2-c2ccnc(NCCNS(=O)(=O)c3ccc(Cl)cc3)c2)c1	NCI-H23 lung	> 100 µM
O=C1NC(=O)C(C(=O)C(=O)Nc2ccc(Br)cc2)C(=O)N1	NCI-H23 lung	> 100 µM
CN(C)c1ccc(-c2cc(=O)c3ccccc3[nH]2)cc1	NCI-H23 lung	> 100 µM
CCOC(=O)C1(C(=O)OCC)C[C@]23OCCC(=O)[C@H]2[C@H]2C(=O)OC(C)(C)O[C@]23C1	NCI-H23 lung	> 100 µM
CCOC(=O)CC(=O)NC1CC2CCC1(C)C2(C)C (stereo unspecified)	NCI-H23 lung	> 100 µM
O=c1c(O)c(-c2ccc(O)cc2O)oc2cc(O)cc(O)c12	NCI-H23 lung	> 100 µM
O=C(Nc1ccc(S(=O)(=O)Nc2nccs2)cc1)c1cccnc1Nc1cccc(Cl)c1	NCI-H23 lung	28.5 µM
O=C(Nc1ccc(-c2nc3cc4ccccc4cc3[nH]2)cc1)c1cccc(Br)c1	NCI-H23 lung	50.3 µM
CCN(CC)CCCN(c1cc(OC)cc2nccnc12)S(=O)(=O)c1ccc(C)cc1	NCI-H23 lung	> 100 µM
Cc1ccc(C)c(NC(=O)C(=O)C2C(=O)C3=C(CC2(C)C)Nc2ccccc2S3)c1 (stereo unspecified)	NCI-H23 lung	> 100 µM
CN1CCCN2CCN(C)CCN(CC1)CC2	NCI-H23 lung	> 100 µM
CC(=O)N=C(N=Nc1c(O)[nH]c2ccc(C)cc12)NC(C)=O	NCI-H23 lung	> 100 µM
CN(C)c1nc(N(C)C)nc(N(C)C)n1	NCI-H23 lung	> 143 µM
CCCCCCCCC[C@@H]1C[C@@H]2CCC3C(C(=O)OC)=C(C)NC(=N1)N32 (stereo partly specified)	NCI-H23 lung	16.3 µM
Cn1c(=O)oc2cc(C(=O)CSC(=S)N3CCCCCC3)ccc21	NCI-H23 lung	> 100 µM

Ref: PubChem BioAssay (NCI)
